B1: Twister Ribozyme (parent)
chain: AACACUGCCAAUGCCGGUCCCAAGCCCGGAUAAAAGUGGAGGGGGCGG

# Variants of: B1
# Method notes: self-cleavage, relative activity (ratio to wild type); higher = more cleavage; co-transcriptional
Reported self-cleavage is given for each of the following variants.

{"Variant string": "C26G A32U", "self-cleavage": 0.193}
{"Variant string": "A2C U37G", "self-cleavage": 0.057}
{"Variant string": "C26G G44U", "self-cleavage": 0.184}
{"Variant string": "C5G G42C", "self-cleavage": 0.226}
{"Variant string": "A1C A33C", "self-cleavage": 0.169}
{"Variant string": "A11C C27U", "self-cleavage": 0.352}
{"Variant string": "A1U C26G", "self-cleavage": 0.0605}
{"Variant string": "C14G G45U", "self-cleavage": 0.101}
{"Variant string": "C5A A40U", "self-cleavage": 0.107}
{"Variant string": "U37C A40G", "self-cleavage": 0.161}
{"Variant string": "A4C A32G", "self-cleavage": 0.146}
{"Variant string": "G7U C8A", "self-cleavage": 0.0463}
{"Variant string": "C8G A35G", "self-cleavage": 0.222}
{"Variant string": "A11U G45A", "self-cleavage": 1.13}
{"Variant string": "C3U A40U", "self-cleavage": 0.0995}
{"Variant string": "C19G U37A", "self-cleavage": 0.0632}
{"Variant string": "C15A C27A", "self-cleavage": 0.18}
{"Variant string": "C15U G47A", "self-cleavage": 0.84}
{"Variant string": "C5U G7U", "self-cleavage": 0.0676}
{"Variant string": "A2G G42A", "self-cleavage": 0.148}
{"Variant string": "A32C G38U", "self-cleavage": 0.723}
{"Variant string": "U37A G38C", "self-cleavage": 0.551}
